Target: IDH1 R132C (Homo sapiens, UniProt O75874, R132C)
Sequence (O75874 whole entry R132C): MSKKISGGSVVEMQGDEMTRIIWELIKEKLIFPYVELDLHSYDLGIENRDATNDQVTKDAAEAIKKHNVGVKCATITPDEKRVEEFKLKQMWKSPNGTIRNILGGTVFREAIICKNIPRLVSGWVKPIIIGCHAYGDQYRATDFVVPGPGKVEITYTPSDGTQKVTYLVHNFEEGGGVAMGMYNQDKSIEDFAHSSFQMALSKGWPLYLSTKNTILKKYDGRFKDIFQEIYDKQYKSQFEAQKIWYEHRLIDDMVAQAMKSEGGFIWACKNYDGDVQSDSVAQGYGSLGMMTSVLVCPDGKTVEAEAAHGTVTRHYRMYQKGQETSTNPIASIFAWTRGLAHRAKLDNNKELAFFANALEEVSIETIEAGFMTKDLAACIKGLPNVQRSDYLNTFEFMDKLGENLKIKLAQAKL
Assay: IDH1 R132C enzymatic assay (NADPH depletion coupled to diaphorase/resazurin)
Assay type: biochemical
Conditions: IDH1 R132C enzymatic inhibition, IC50 class
quantityName: IC50

Solved cases (5 shown):
| compound | quantityName | reportedMeasurement |
| --- | --- | --- |
| CCc1cccc(CC)c1-n1c(C(C)C)c(C(=O)NCCO)cc(-c2nc(-c3ccc(Cl)cc3)cs2)c1=O | IC50 | 300 to 1000 nM |
| CC1(C)CC(=O)c2cc(-c3nc(-c4ccc(C(F)(F)F)cc4)cs3)c(=O)n(-c3ccccc3C(F)(F)F)c2C1 | IC50 | 300 to 1000 nM |
| CCc1cccc(CC)c1-n1c(CC(C)C)c(C(=O)N2CCNCC2)cc(-c2nc(-c3ccc(C(=O)NC4CCCC4)cc3)c(C)s2)c1=O | IC50 | 5000 to 20000 nM |
| CCc1cccc(CC)c1-n1c2c(cc(-c3nc(-c4cccc(OC)c4)cs3)c1=O)C(=O)CC(C)(C)C2 | IC50 | > 20000 nM |
| COc1ccc(OC)c(-n2c(=O)c(-c3nc(-c4ccc(Cl)cc4)cs3)cc3c(OC)cncc32)c1 | IC50 | 5000 to 20000 nM |

Problem: // IC50 lookup, key: `CCOc1ccc(Cl)cc1-n1c(C=C(C)C)c(C(=O)N2CCNCC2)cc(-c2nc(-c3ccc(C(F)(F)F)cc3)cs2)c1=O`
Solution: < 300 nM

Problem: Note, next up: `CCOc1ncc(C)cc1-n1c(C=C(C)C)c(C(=O)N2CCNCC2)cc(-c2nc(-c3ccc(C(F)F)nc3)cs2)c1=O`
Solution: 300 to 1000 nM
